Data origin, for the record: PubChem BioAssay (NCI)

- Test system: M14 melanoma
- Assay Name: NCI tumour cell line growth inhibition, 48 h; in the data active = GI50 below about 0.43 µM; inactive = the rest
The categories you may choose from are active, inactive

# Mol Smiles, Assayed Target, Group Label
measured = [
    ("O=C(CSC(c1ccccc1)c1ccccc1)N/N=C/c1ccc(Cl)cc1Cl", "M14 melanoma", "inactive"),
    ("COc1ccc(Nc2c3ccccc3nc3occ(Cl)c23)cc1", "M14 melanoma", "active"),
    ("Cn1cc(C2=C(c3cn(CCCCCN)c4ccccc34)C(=O)NC2=O)c2ccccc21", "M14 melanoma", "inactive"),
]

Test call for this compound, please: "[Au+].[Au+].[Au+].[c-]1nccn1Cc1ccccc1.[c-]1nccn1Cc1ccccc1.[c-]1nccn1Cc1ccccc1"
inactive

Identify the outcome logged in this assay for the compound shown: "CCc1ccccc1NC(=O)c1sc2nc3c(cc2c1N)C(=O)CCC3"
active

Test call, this compound: "O=C(Nc1ccc(-c2ccccc2)cc1)C1CCN(S(=O)(=O)c2ccccc2Cl)CC1"
inactive

Kindly provide the recorded test outcome for the following compound: "O=C(COc1ccc(/C=C2\CSc3ccccc3C2=O)cc1)Nc1nccs1"
inactive

Short answer needed: outcome of this test for "CCC(C)(C)c1ccc(OCCCCCCN2CCNCC2)cc1" ?
inactive

Could you check what this test reported for "COc1cc(C2=C(c3cn(C)c4ccccc34)COC2=O)cc(OC)c1OC" ?
active

Kindly provide the recorded test outcome for the following compound: "COc1cc2ncn(-c3cc(OCCc4ccccc4)c(C(N)=O)s3)c2cc1OC"
inactive

* * *

- Tested on: OVCAR-8 ovarian
- Assay Name: NCI tumour cell line growth inhibition, 48 h
Recorded Endpoint: TGI

Report TGI for each item below.
1. Cc1ccc([C@H]2CC(=O)C[C@H](c3ccc(C)cc3)C23C(=O)c2ccccc2C3=O)cc1
2. CC(=O)c1sc(-c2nc(C)c(C(=O)/C=C\c3ccc(/C=C\C(=O)c4sc(-c5nc(C)c(C(C)=O)s5)nc4C)cc3)s2)nc1C

> 100 µM
> 100 µM

The following compounds each have a reported value; give each one's TGI.
1. O=C1c2ccccc2C(=O)N1Cc1ccccc1-c1c2nc(c(-c3ccccc3CN3C(=O)c4ccccc4C3=O)c3ccc([nH]3)c(-c3ccccc3CN3C(=O)c4ccccc4C3=O)c3nc(c(-c4ccccc4CN4C(=O)c5ccccc5C4=O)c4ccc1[nH]4)C=C3)C=C2
2. COc1ccc2[nH]c3c4c(ccc3c2c1)C(=O)C=CC4=O
3. NP(=O)(OCC1=CC(=O)c2ccccc2C1=O)N(CCBr)CCBr (configuration not stated)
4. CC(=O)O[C@H](C[C@H](C(C)C)N(C)C(=O)[C@@H](NC(=O)[C@H]1CCCCN1C)C(C)C)c1nc(C(=O)N[C@@H](Cc2ccccc2)C[C@H](C)C(=O)O)c(CCOCc2ccccc2)s1
5. CCc1ccccc1NC(=O)c1sc2nc3c(cc2c1N)C(=O)CCC3
6. O=C1[C@H]2ON(c3ccccc3)C(c3ccc(Cl)cc3)[C@H]2C(=O)N1c1ccc(Cc2ccc(N3C(=O)[C@@H]4ON(c5ccccc5)C(c5ccc(Cl)cc5)[C@@H]4C3=O)cc2)cc1 (some centres not stated)
7. O=C1OC2(OC2c2ccccc2)c2ccccc21 (configuration not stated)
8. C=C1C[C@]23CCC4C(C)(C)C(=O)CC[C@]4(C)C2C[C@H]1C(O)C3=O (some centres not stated)

["> 100 µM", "12.4 µM", "37.2 µM", "> 10 µM", "> 100 µM", "> 100 µM", "> 100 µM", "> 75 µM"]

Please state, for each entry, its recorded TGI.
1. O=c1[nH]cnc2cccc(Cl)c12
2. O=C(/C=C/c1cc(CN2CCOCC2)c(O)c2ncccc12)c1cc(CN2CCOCC2)c(O)c2ncccc12
3. N#Cc1nc(-c2cccs2)oc1N
4. C=CCSS/C=C/CS(=O)CC=C (configuration not stated)

1. > 100 µM
2. > 100 µM
3. > 100 µM
4. 37.1 µM
